src = PubChem BioAssay

systemUnderTest: Torsin-1A (Homo sapiens)
testDescription: small-molecule binders of mutant TOR1A in lysate, primary screen, cell lysate, small-molecule microarray, COS7 lysate, 635/667 nm fluorescence (AID 1150);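 note: score pools 667 nm emission and signal to noise measuring lysate protein binding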
testConditions: COS7 hTOR1A mutant lysate, 635 nm fluorescence, higher = more signal
Answer f if composite z-score is under 0.6, and t if it is 0.6 or more.

- compound: "[N-]=[N+]=NCc1ccccc1[C@@H]1OC(c2ccc(OCCCO)cc2)=N[C@]1(Cc1ccccc1)C(=O)N1CCOCC1"
  systemUnderTest: "Torsin-1A (Homo sapiens)"
  classLabel: "t"
- compound: "CN1C(=O)C2C=CC(C(O)c3ccc(Br)cc3)N(N(c3ccccc3)c3ccccc3)C2C1=O (centres undefined)"
  systemUnderTest: "Torsin-1A (Homo sapiens)"
  classLabel: "f"
- compound: "CCOC(=O)CCN1C(=O)[C@H]2[C@H]3[C@H](O)[C@H](O)CC(=O)[C@H]3CC[C@H]2C1=O"
  systemUnderTest: "Torsin-1A (Homo sapiens)"
  classLabel: "f"
- compound: "C[C@H](c1ccccc1)N1C(=O)[C@H]2[C@@H]3C(=CC[C@H]2C1=O)C(=O)[C@H]1O[C@H]1[C@H]3O"
  systemUnderTest: "Torsin-1A (Homo sapiens)"
  classLabel: "f"
- compound: "CO[C@@H]1COC(=O)CC=C[C@@H](C)[C@@H]2C=C[C@H](O)[C@@H](COC(=O)CCC[C@H]1C)O2"
  systemUnderTest: "Torsin-1A (Homo sapiens)"
  classLabel: "t"
- compound: "COc1ccc([Si](C)(C)[C@H]2[C@H](CCO)O[C@@]3(C(=O)N(Cc4cccc(NC(=O)[C@H](C)O)c4)c4ccccc43)[C@@H]2C)cc1"
  systemUnderTest: "Torsin-1A (Homo sapiens)"
  classLabel: "t"
- compound: "COc1ccccc1CN1C(=O)c2ccccc2[C@@H](C(=O)NCC(F)(F)F)[C@@H]1c1ccc(CO)cc1"
  systemUnderTest: "Torsin-1A (Homo sapiens)"
  classLabel: "f"
- compound: "CN1C(=O)C2C=CC(C(O)C(c3ccccc3)c3ccccc3)N(NC(=O)OC(C)(C)C)C2C1=O (centres undefined)"
  systemUnderTest: "Torsin-1A (Homo sapiens)"
  classLabel: "t"
- compound: "COCCOC(=O)N1C(=O)[C@@]2(c3cc(C#Cc4ccc(OC)cc4)ccc31)[C@H](C(=O)N1CCN(c3ncccn3)CC1)[C@H]1C(=O)O[C@H](c3ccccc3)[C@H](c3ccccc3)N1[C@@H]2c1ccc(OCCO)cc1"
  systemUnderTest: "Torsin-1A (Homo sapiens)"
  classLabel: "f"
- compound: "CCOC(=O)[C@H](Cc1ccccc1)NC(=O)CCC1CC(OC(=O)NCc2ccc3c(c2)OCO3)CC2(CCCC(COC(=O)NCc3cccc(C(F)(F)F)c3)O2)O1 (some centres undefined)"
  systemUnderTest: "Torsin-1A (Homo sapiens)"
  classLabel: "f"
- compound: "CC(CCN1CCc2nc(-c3ccccc3)c(-c3ccccc3)cc2C1)=NO[C@H](C)c1cn([C@@H]2COC[C@H]2O)nn1"
  systemUnderTest: "Torsin-1A (Homo sapiens)"
  classLabel: "t"
- compound: "CCCC=C(CCC)[C@@H](NC(=O)c1ccc(-c2ccccc2)cc1)c1ccc(C(=O)OC)cc1"
  systemUnderTest: "Torsin-1A (Homo sapiens)"
  classLabel: "f"
